Recorded measurements of log10 IC50, one per entry
# experimental.target: Human immunodeficiency virus type 1 integrase (Human immunodeficiency virus 1, UniProt Q7ZJM1)
# Sequence (Q7ZJM1 whole entry): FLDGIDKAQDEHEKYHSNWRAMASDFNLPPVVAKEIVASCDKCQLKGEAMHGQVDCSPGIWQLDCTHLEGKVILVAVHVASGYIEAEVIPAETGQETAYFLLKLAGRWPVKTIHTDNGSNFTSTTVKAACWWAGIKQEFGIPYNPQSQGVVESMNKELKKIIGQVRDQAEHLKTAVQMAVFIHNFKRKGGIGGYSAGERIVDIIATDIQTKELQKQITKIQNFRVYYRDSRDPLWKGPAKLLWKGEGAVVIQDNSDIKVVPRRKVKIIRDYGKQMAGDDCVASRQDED
# method.notes: Inhibition of recombinant HIV1 integrase strand transfer activity
Answers are given as log10 of IC50 in nM.

# count of solved cases: 2
CCOC(=O)c1cn2c(c1O)C(=O)N(Cc1ccc(Cl)c(Cl)c1)CC2 ... 1.00
CCOC(=O)c1cn2c(c1O)C(=O)N(Cc1ccc(F)cc1)CC2 ... 1.60

Req: Look up log10 IC50 for this compound: CNC(=O)c1cn2c(c1O)C(=O)N(Cc1ccc(Cl)cc1)CC2
Resp: 1.78

Req: Look up log10 IC50 for this compound: CCOC(=O)c1cn2c(c1O)C(=O)N(Cc1cccc(F)c1)CC2
Resp: 2.04

Req: Look up log10 IC50 for this compound: O=C(O)c1cn2c(c1O)C(=O)N(Cc1cccc(Cl)c1)CC2
Resp: 1.00

Req: Look up log10 IC50 for this compound: CNC(=O)c1cn2c(c1O)C(=O)N(Cc1ccc(F)cc1)CC2
Resp: 1.90

Req: Look up log10 IC50 for this compound: CCOC(=O)c1cn2c(c1O)C(=O)N(Cc1ccc(F)c(Cl)c1)CC2
Resp: 1.30

Req: Look up log10 IC50 for this compound: CNC(=O)c1cn2c(c1O)C(=O)N(Cc1ccc(Cl)c(Cl)c1)CC2
Resp: 1.60

Req: Look up log10 IC50 for this compound: CCOC(=O)c1cn2c(c1O)C(=O)N(Cc1ccc(Cl)cc1)CC2
Resp: 1.60

Req: Look up log10 IC50 for this compound: O=C(O)c1cn2c(c1O)C(=O)N(Cc1ccccc1)CC2
Resp: 1.90

Req: Look up log10 IC50 for this compound: CCOC(=O)c1cn2c(c1O)C(=O)N(Cc1cccc(Cl)c1)CC2
Resp: 1.48

Req: Look up log10 IC50 for this compound: CCOC(=O)c1cn2c(c1O)C(=O)N(Cc1ccccc1)CC2
Resp: 2.34
